Data origin: patent USRE43802E1

IC50 reference
biological target: HIV protease (Human immunodeficiency virus type 1 group M subtype B, UniProt P04585); construct: HIV protease is diluted in the assay buffer to a final enzyme concentration of 12.3 nanomolar, based on a molecular weight of 10,780; assay: HIV protease enzyme assay (fluorescence, substrate 2-Ile-Nle-Phe(p-NO2)-Gln-ArgNH2); format: biochemical; settings: IC50 (nM), Table 21; HIV protease enzyme assay
# unit: nM | format: bare number

COMPOUND: CNC(=O)C[C@H](NC(=O)c1ccc2ccccc2n1)C(=O)N[C@@H](Cc1ccccc1)[C@H](O)CN(CCC(C)C)S(=O)(=O)c1ccccc1
REPORTED VALUE: 3

IC50 in this record for CC(C)CCN(C[C@@H](O)[C@H](Cc1ccccc1)NC(=O)c1ccccc1)S(=O)(=O)c1ccccc1 : 85

IC50 in this record for CC(C)CCN(C[C@@H](O)[C@H](Cc1ccccc1)NC(=O)[C@@H](NC(=O)CN(C)C)C(C)(C)C)S(=O)(=O)c1ccccc1 : 3

IC50 in this record for COc1ccc(S(=O)(=O)N(CC(C)C)C[C@@H](O)[C@H](Cc2ccccc2)NC(=O)c2c(C)cccc2C)cc1 : 5

IC50 in this record for CCC(C)[C@H](NC(=O)CN(C)C)C(=O)N[C@@H](Cc1ccccc1)[C@H](O)CN(CCC(C)C)S(=O)(=O)c1ccccc1 (stereo partly shown) : 4

IC50 in this record for CC(C)CCN(C[C@@H](O)[C@H](Cc1ccccc1)NC(=O)[C@H](Cc1cnc[nH]1)NC(=O)c1ccc2ccccc2n1)S(=O)(=O)c1ccccc1 : 2
